Test system: CAKI-1 renal
protocol summary: NCI tumour cell line growth inhibition, 48 h; in the data active = GI50 below about 0.43 µM; inactive = the rest
Your reply should match one of these outcome classes. active, inactive

[ask] What outcome does the record of this test show for `N=C(N)c1ccc(-c2ccc(-c3cc(Cl)cc(Cl)c3)s2)s1` ?
[reply] inactive

[ask] What was the test verdict on `COc1cc2nc(-c3ccc(C(F)(F)F)cc3)cc(OCCCN3CCCC3)c2cc1OC` ?
[reply] active

[ask] What was the test verdict on `COc1ccc(C2=C(N3CCc4ccccc43)C(=O)NC2=O)cc1` ?
[reply] inactive

[ask] Hi, do you know how `Cc1cc2c(cc1Cl)S/C(=C/C(=O)O)C(Nc1cccc3nsnc13)=NS2(=O)=O` came out in this test?
[reply] inactive

[ask] Any idea what this test logged for `c1ccc(-c2nc(N3CCCNCC3)c3nc(-c4ccccc4)oc3n2)cc1` ?
[reply] inactive

[ask] Could you kindly confirm the outcome this assay logged for `OCc1ccc(N2CCOCC2)cc1Cl` ?
[reply] inactive

[ask] State the result this test recorded for `CCOC(=O)N1CCN(CCCCCOc2ccccc2C2CCCCC2)CC1` .
[reply] inactive

[ask] Status in this test for `COc1ccc(-n2nc(C)c3c(Nc4ccc(NC(=O)Nc5ccc(Cl)c(C(F)(F)F)c5)cc4)ncnc32)cc1` ?
[reply] inactive

[ask] Outcome? O=C(c1cccs1)C1NO[N+]([O-])=C1c1cccs1 (stereo not given)
[reply] inactive

[ask] Please state the recorded outcome for this compound: `O=C1/C(=C/c2ccc([N+](=O)[O-])cc2)COc2ccc(O)cc21`
[reply] inactive

meta.source: PubChem BioAssay (NCI)
